Tested on: EKVX NSCLC
Test: NCI tumour cell line growth inhibition, 48 h
// values below are reported GI50

See these solved cases before continuing.
1) N/C(=N\OC(=O)c1ccccc1)C(C(=O)NOC(=O)c1ccccc1)C1CCCCC1 (centres undefined) : 6.1 µM
2) COc1cc(-c2csc(NC(=O)c3cc(C(F)(F)F)cc(C(F)(F)F)c3)n2)cc(OC)c1OC : 2.47 µM
3) COc1cc2cc(Oc3ccc(NC(=O)c4cccc(C(F)(F)F)c4)cc3)c(C)nc2cc1OC : 4.39 µM
4) COc1ccc(Cl)cc1Nc1nc(C(F)(F)F)ccc1C(=O)NN : 2.93 µM
5) Fc1cccc(COc2ccc(Nc3ncnc4sc(-c5ccco5)cc34)cc2Cl)c1 : > 25 µM
6) CSc1ccc(/C=C2\CNC/C(=C\c3ccc(SC)cc3)C2=O)cc1 : 150 mg/L

Provide value of GI50 for this record tested with EKVX NSCLC: `C/C(=N\O)c1ccc(Nc2cc(-n3nnc4ccccc43)nc3ccccc23)cc1`
6.97 µM

Further, for `CC(C)n1c(/C=C/[C@@H](O)C[C@@H](O)CC(=O)O)c(-c2ccc(F)cc2)c2ccccc21` ?
16.8 µM

Further, for `CS(=O)(=O)c1ccc(Cl)c([N+](=O)[O-])c1` ?
18.5 µM

Further, for `CNC(=O)Nc1ccc(-c2nc(N3CCOCC3)nc3c2cnn3C2CCOCC2)cc1` ?
0.18 µM

Further, for `O=C(O)c1cc[c]([Hg][S]c2ncnc3nc[nH]c23)cc1` ?
19.2 µM

Further, for `CC[O-].CC[O-].O=C1C(=C([O-])c2ccccc2)C(=O)c2ccccc21.O=C1C(=C([O-])c2ccccc2)C(=O)c2ccccc21.[Ti+4]` ?
24.3 µM

Further, for COc1cc(/C=C2\CN(C)CC3=C2Nc2nc(SC)[nH]c(=O)c2C3c2cc(OC)c(OC)c(OC)c2)cc(OC)c1OC (centres undefined) ?
8.44 µM

Further, for `CC(=O)c1cccc(N(/C=C/C(=O)C(F)(F)F)CC(=O)c2ccc(Cl)cc2)c1` ?
> 100 µM

###

Tested on: DLD-1 colon
Assay: NCI tumour cell line growth inhibition, 48 h
// values below are reported TGI

1. CC(=O)OC1CC2(O)C(CCC3(C)C(c4ccc(=O)oc4)CCC32O)C2(C)C1=CC(O)C1OC12 (stereo not drawn) : 0.179 µM
2. C=C(C)C1CC2C(C)=C(OC(C)=O)C1n1c(=O)c3cc4ccccc4cc3c(=O)n12 (stereo not drawn) : > 100 µM

Now, please, on to the next molecule.
Provide value of TGI for this record tested with DLD-1 colon: COC(=O)C1=CCON(c2ccccc2)C1c1ccccc1 (stereo not drawn)
> 100 µM

###

// values below are reported TGI
System: SF-539 CNS
Assay: NCI tumour cell line growth inhibition, 48 h

See these solved cases before continuing.
1) C=C(C)C1CC2C(C)=C(OC(C)=O)C1n1c(=O)c3cc4ccccc4cc3c(=O)n12 (stereo not drawn) : > 100 µM
2) O=C(/C=C\Nc1ccccc1O)C(F)(F)F : > 100 µM
3) Cc1nc2c(n1CC(C)(C)C)C(=O)c1ccccc1C2=O : > 100 µM
4) O=C1c2ccccc2N2OC3(N4CCCC4)CCCC3C12c1ccccc1 (stereo not drawn) : > 100 µM

Query: TGI; subject: `Nc1nncc2[nH]cnc12`
> 100 µM

Further, for `Cc1nnc2n1-c1ccccc1N(Cc1ccccc1)CC2` ?
> 100 µM

Further, for `Nc1cc(N)c2nc(-c3ccccc3)c(Oc3ccc(F)cc3)nc2c1` ?
35.7 µM

Further, for CC1(C)C(=O)C(O)=CC2C1=CCC1C2(C)C(=O)CC2(C)C(C(C)(O)C(=O)CC(O)C(C)(C)O)C(O)CC12C (stereo not drawn) ?
5.98 µM

Further, for COc1ccc(C(C2=C(C)C(=O)c3ccccc3C2=O)c2ccc(C(C)C)cc(=O)c2O)cc1 (stereo not drawn) ?
5.8 µM

Further, for Cc1cn(CCCCCOC(=O)NC(CCCNC(N)=O)C(=O)O)c(=O)[nH]c1=O (stereo not drawn) ?
> 100 µM

Further, for `Cc1cccc(NC(=O)c2sc3nc4c(cc3c2N)CCCC4)c1C` ?
1.2 µM

Further, for `CC12CC3(C)CC(C)(C1)CC(N=[N+]=[N-])(C2)C3` ?
> 100 µM

Further, for `S=C(N/N=C/c1cc(Cl)cc(Cl)c1)NC12CC3CC(CC(C3)C1)C2` ?
> 100 µM

Further, for `CCOC(=O)Cn1nnc2cc(Nc3c(C)[n+]([O-])c4cc(F)c(OCC)cc4[n+]3[O-])ccc21` ?
> 100 µM

Further, for COC(=O)c1ccc2c(c1)C(NC(C)=O)CCc1cc(OC)c(OC)c(OC)c1-2 (stereo not drawn) ?
0.056 µM

Further, for `CN(C)CCCNc1cc(O)c2c(c1O)C(=O)c1ccccc1C2=O` ?
26.7 µM

Further, for `O=C(Sc1c(-c2ccccc2)c(=O)n(-c2ccccc2)c(=S)n1-c1ccccc1)c1ccco1` ?
> 100 µM

Further, for `CN(C)CCNc1c([N+](=O)[O-])sc2ccc(Cl)cc12` ?
46.9 µM
